system: alkaline protease; assay type: biochemical, Streptomyces sp. TOTO-9305
ENDPOINT NAME: inhibition of the activity of the enzyme (in words)

MOLECULE	REPORTED RESULT
O=C(O)c1cc[c]([Hg][Cl])cc1 [PCMB, p-chloromercuribenzoate]	not inhibited
O=C(O)CN(CCN(CC(=O)O)CC(=O)O)CC(=O)O	not inhibited
O=C(O)CI	not inhibited

---

Record form. Attribute: Residual Activity. Fill in for each entry.
tested on: alkaline protease; assay type: biochemical, Streptomyces sp. TOTO-9305; conditions: pH 9
Field format: numeric only.

Query: Item under review: O=S(=O)(F)Cc1ccccc1 [PMSF, phenyl methanesulfonyl fluoride] . Reported Residual Activity?
Reply: 0

Query: Item under review: O=C(O)CN(CCN(CC(=O)O)CC(=O)O)CC(=O)O [EDTA, ethylene-diaminetetraacetic acid] . Reported Residual Activity?
Reply: 91

Query: Item under review: O=C(O)c1cc[c]([Hg][Cl])cc1 [PCMB, p-chloromercuribenzoate] . Reported Residual Activity?
Reply: 91

Query: Item under review: O=C(O)CI [Iodoacetic Acid, iodoacetic acid] . Reported Residual Activity?
Reply: 96

Query: Item under review: CCCCCCCCCCCCOS(=O)(=O)[O-].[Na+] [SDS, sodium dodecylsulfate] . Reported Residual Activity?
Reply: 74
